# test.method.notes: Half life in Sprague-Dawley rat at 10 mg/kg, po or 2 mg/kg, iv
# Format: ADME, organism-based
# condition.context: in vivo
Listed below: half-life values for each entry.
A number alone suffices; assume h.

molecule | half-life [h]
COC(=O)N[C@H](C(=O)N1CCC[C@H]1c1ncc(-c2cc(F)c3c(c2)OC(c2cccc(OC)c2)n2c-3cc3cc(-c4cnc([C@@H]5CCCN5C(=O)[C@@H](NC(=O)OC)C(C)C)[nH]4)ccc32)[nH]1)C(C)C (some centres not stated) | 5.9

// switching to the query molecule
Given the entry COC(=O)N[C@H](C(=O)N1CCC[C@H]1c1ncc(-c2cc(F)c3c(c2)OC(c2cc(Cl)cc(OC)c2)n2c-3cc3cc(-c4cnc([C@@H]5CCCN5C(=O)[C@@H](NC(=O)OC)C(C)C)[nH]4)ccc32)[nH]1)C(C)C (some centres not stated) , report its measured half-life. 5.2
